B1: Max-interacting protein 1, residues 70 to 120; numbered along this chain, P50539 (parent)
chain: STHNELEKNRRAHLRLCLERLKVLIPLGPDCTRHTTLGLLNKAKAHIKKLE

Variants of: B1
Test: abundance fitness (aPCA) (normalised: wild type 0, dead -1); higher = more abundant; growth selection in yeast, the domain comes from the species named
Details: Homo sapiens
Assign 1 whenever abundance fitness does not fall below -0.6; assign 0 whenever it does.

- MUTANT LABEL: "E51K"
  CLASS NAME: 1
- MUTANT LABEL: "A45V"
  CLASS NAME: 1
- MUTANT LABEL: "L27C"
  CLASS NAME: 1
- MUTANT LABEL: "K48V"
  CLASS NAME: 0
- MUTANT LABEL: "N41M"
  CLASS NAME: 1
- MUTANT LABEL: "L14G"
  CLASS NAME: 1
- MUTANT LABEL: "N4Q"
  CLASS NAME: 1
- MUTANT LABEL: "S1W"
  CLASS NAME: 0
- MUTANT LABEL: "P29L"
  CLASS NAME: 1
- MUTANT LABEL: "E7N"
  CLASS NAME: 1
- MUTANT LABEL: "L40H"
  CLASS NAME: 0
- MUTANT LABEL: "K42W"
  CLASS NAME: 1
- MUTANT LABEL: "H34K"
  CLASS NAME: 1
- MUTANT LABEL: "V23E"
  CLASS NAME: 1
- MUTANT LABEL: "C31R"
  CLASS NAME: 1
- MUTANT LABEL: "A45P"
  CLASS NAME: 0
- MUTANT LABEL: "L6D"
  CLASS NAME: 1
- MUTANT LABEL: "I25K"
  CLASS NAME: 0
- MUTANT LABEL: "R15V"
  CLASS NAME: 0
- MUTANT LABEL: "H13P"
  CLASS NAME: 1
- MUTANT LABEL: "L6N"
  CLASS NAME: 1
- MUTANT LABEL: "T2R"
  CLASS NAME: 0
- MUTANT LABEL: "R33D"
  CLASS NAME: 0
- MUTANT LABEL: "L37Y"
  CLASS NAME: 1
- MUTANT LABEL: "I47S"
  CLASS NAME: 0
- MUTANT LABEL: "E5C"
  CLASS NAME: 0
- MUTANT LABEL: "A12W"
  CLASS NAME: 1
- MUTANT LABEL: "R10G"
  CLASS NAME: 1
- MUTANT LABEL: "H3W"
  CLASS NAME: 1
- MUTANT LABEL: "L18T"
  CLASS NAME: 0
- MUTANT LABEL: "T32Q"
  CLASS NAME: 1
- MUTANT LABEL: "R10I"
  CLASS NAME: 1
- MUTANT LABEL: "R20A"
  CLASS NAME: 0
- MUTANT LABEL: "A45N"
  CLASS NAME: 1
- MUTANT LABEL: "E5D"
  CLASS NAME: 1
- MUTANT LABEL: "L16C"
  CLASS NAME: 1
- MUTANT LABEL: "L37M"
  CLASS NAME: 1
- MUTANT LABEL: "R33Y"
  CLASS NAME: 1
- MUTANT LABEL: "V23S"
  CLASS NAME: 1
- MUTANT LABEL: "K8E"
  CLASS NAME: 1
- MUTANT LABEL: "N4M"
  CLASS NAME: 1
- MUTANT LABEL: "H46S"
  CLASS NAME: 1
- MUTANT LABEL: "N41A"
  CLASS NAME: 1
- MUTANT LABEL: "A43W"
  CLASS NAME: 1
- MUTANT LABEL: "T2Q"
  CLASS NAME: 1
- MUTANT LABEL: "E51V"
  CLASS NAME: 1
- MUTANT LABEL: "L40D"
  CLASS NAME: 0
- MUTANT LABEL: "D30K"
  CLASS NAME: 1
- MUTANT LABEL: "P29N"
  CLASS NAME: 1
- MUTANT LABEL: "N4C"
  CLASS NAME: 1
- MUTANT LABEL: "D30V"
  CLASS NAME: 1
- MUTANT LABEL: "R10H"
  CLASS NAME: 1
- MUTANT LABEL: "T32L"
  CLASS NAME: 1
- MUTANT LABEL: "L21K"
  CLASS NAME: 0
- MUTANT LABEL: "L27S"
  CLASS NAME: 1
- MUTANT LABEL: "G38M"
  CLASS NAME: 1
- MUTANT LABEL: "L21R"
  CLASS NAME: 0
- MUTANT LABEL: "E19I"
  CLASS NAME: 1
- MUTANT LABEL: "L18Q"
  CLASS NAME: 0
- MUTANT LABEL: "R20S"
  CLASS NAME: 1
- MUTANT LABEL: "N4D"
  CLASS NAME: 1
- MUTANT LABEL: "A43N"
  CLASS NAME: 1
- MUTANT LABEL: "C31E"
  CLASS NAME: 1
- MUTANT LABEL: "R20T"
  CLASS NAME: 1
- MUTANT LABEL: "G38I"
  CLASS NAME: 1
- MUTANT LABEL: "L27I"
  CLASS NAME: 1
- MUTANT LABEL: "H3G"
  CLASS NAME: 1
- MUTANT LABEL: "E7T"
  CLASS NAME: 1
- MUTANT LABEL: "A43Y"
  CLASS NAME: 0
- MUTANT LABEL: "K8R"
  CLASS NAME: 1
- MUTANT LABEL: "E7R"
  CLASS NAME: 1
- MUTANT LABEL: "R20Y"
  CLASS NAME: 0
- MUTANT LABEL: "L21E"
  CLASS NAME: 0
- MUTANT LABEL: "I47N"
  CLASS NAME: 0
- MUTANT LABEL: "P29Y"
  CLASS NAME: 1
- MUTANT LABEL: "L14P"
  CLASS NAME: 1
- MUTANT LABEL: "A45T"
  CLASS NAME: 1
- MUTANT LABEL: "P29K"
  CLASS NAME: 1
- MUTANT LABEL: "A12Y"
  CLASS NAME: 0
- MUTANT LABEL: "A12T"
  CLASS NAME: 1
- MUTANT LABEL: "T36L"
  CLASS NAME: 1
- MUTANT LABEL: "R20Q"
  CLASS NAME: 1
- MUTANT LABEL: "H3D"
  CLASS NAME: 1
- MUTANT LABEL: "R33V"
  CLASS NAME: 1
- MUTANT LABEL: "T36N"
  CLASS NAME: 1
- MUTANT LABEL: "K49S"
  CLASS NAME: 1
- MUTANT LABEL: "L24N"
  CLASS NAME: 0
- MUTANT LABEL: "L24E"
  CLASS NAME: 0
- MUTANT LABEL: "K22I"
  CLASS NAME: 0

Values from the Human Domainome abundance scans (Beltran et al. 2025)
